MEASUREMENT_NOTES: Cytotoxic Profiling in HEK 293 Cell Line of Diverse Libraries Using Quantitative High-Throughput Screening; further: nearly all actives have a fitted effect of over 60% in size
SETUP_CONDITIONS: HEK 293 viability, ATP luminescence (CellTiter-Glo), 48-72 h; series mostly up to 115 µM
Screen size: about 94,000 compounds; about 6,200 (6.6%) were called active. Another 31% or so got no clear call; they are omitted. The call rests on the fitted dose curve; in most records, active means well fitted inhibition curve with a large enough effect; inconclusive means small, poorly fitted or top-dose-only effect; inactive means flat fitted curve, though single readings scatter. What follows is part of a selection rich in actives, with near analogues and random picks from the rest.
Pick from active, inactive when you respond.

## Input Fill in: this test's call for CCCN(CC1CCOC1)S(=O)(=O)c1ccccc1Cl (stereo not given) is ___
## Output inactive

## Input For this molecule, state the assay outcome: O=C(Cc1cccnc1)N1CCCC(c2nc(CCOCC3CCCC3)no2)C1 (stereo not given)
## Output inactive

## Input Write down the call the test reported for this molecule. Item: O=C(c1ccc(F)cc1F)N1CCN(c2cc(-c3ccc(Cl)cc3)[nH]n2)CC1
## Output active

## Input Which outcome did this test record for the molecule O=C(Cc1ccc(F)cc1)NC1CCN(c2cc(-c3ccc(Cl)cc3)[nH]n2)CC1 ?
## Output inactive

## Input Record lookup: outcome of this test for c1ccc(-c2nc(C3CCOCC3)nn2CC2COCCO2)cc1 (stereo not given) ?
## Output inactive

## Input Field: outcome | Entry: CC1CCN([C@@H]2[C@H](O)[C@H](CO)O[C@@H]2CNC(=O)Nc2ccccc2)CC1
## Output inactive

## Input Which outcome was assigned to COc1ccc(-c2cc(N3CCN(C(=O)c4ccncc4)CC3)n[nH]2)cc1 in this test?
## Output inactive

## Input What was the test verdict on COc1cccc(C(=O)N2CCN(c3nccc(Nc4ccccc4OC)n3)CC2)c1 ?
## Output inactive

## Input Name the outcome recorded for COc1cccc(CC(=O)N[C@@H]2C[C@H](Cn3cc(C4CC4)nn3)[C@@H](O)[C@H]2O)c1 in the assay.
## Output inactive

## Input Could you kindly confirm the outcome this assay logged for O=C(Nc1ccccc1F)N1CCc2nnc(C3CC3)n2CC1 ?
## Output inactive

###

MEASUREMENT_NOTES: Cytotoxic Profiling in HEK 293 Cell Line of Diverse Libraries Using Quantitative High-Throughput Screening; further: nearly all actives have a fitted effect of over 60% in size
SETUP_CONDITIONS: HEK 293 viability, ATP luminescence (CellTiter-Glo), 48-72 h; series mostly up to 115 µM
Among all 94,000 compounds or so, about 6,200 (6.6%) were called active. Roughly 31% stayed inconclusive and do not appear here. Calls follow the shape of the dose curve; as a rule, active = well fitted inhibition curve with a large enough effect; inconclusive = small, poorly fitted or top-dose-only effect; inactive = flat fitted curve, though single readings scatter. The list comes from a sample in which actives are over-represented; it also holds close analogues and randomly drawn compounds.
Could you please pick one outcome from this set? active, inactive

Worked examples follow.
## Input Hey, what did the test say about CCCCc1cc(C[C@H]2CNCC[C@H]2CC(=O)N(CC)CC)no1 ?
## Output inactive

## Input # outcome recorded in this test, key = COc1ccc(CN2CCc3ncc(C(=O)Nc4ccccc4C)n3CC2)cn1
## Output inactive

## Input So what was the verdict on COc1ccc(CCNC(=O)c2nnn3cc(-c4ccccc4)[nH]c(=O)c23)cc1OC in this test?
## Output inactive

Below: the item to evaluate.
## Input Hi team, can someone confirm the assay call for COc1ccc(CNC(=O)C[C@@H]2CCNC[C@@H]2Cc2cc(-c3ccc(C(C)(C)C)cc3)on2)cc1OC ?
## Output active
